Biological target: T1, human GIP receptor (human, UniProt P48546 22-466)
T1 sequence (looked up): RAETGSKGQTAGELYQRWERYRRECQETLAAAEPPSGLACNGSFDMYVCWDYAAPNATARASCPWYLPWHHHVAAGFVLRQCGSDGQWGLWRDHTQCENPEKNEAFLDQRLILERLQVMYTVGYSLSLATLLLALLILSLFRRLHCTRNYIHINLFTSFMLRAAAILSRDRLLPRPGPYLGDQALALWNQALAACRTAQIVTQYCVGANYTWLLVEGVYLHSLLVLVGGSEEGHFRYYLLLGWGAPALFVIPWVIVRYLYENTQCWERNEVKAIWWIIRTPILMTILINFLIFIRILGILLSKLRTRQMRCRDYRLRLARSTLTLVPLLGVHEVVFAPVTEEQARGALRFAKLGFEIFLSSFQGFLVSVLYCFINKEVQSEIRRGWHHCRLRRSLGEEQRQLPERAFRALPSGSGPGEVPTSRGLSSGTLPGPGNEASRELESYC
Test: cell-based or functional assay
Consider the following binders; for each one, report its cAMP EC50 (1.0% HSA).
Number first, unit second: that is the form wanted.

Some binders with known cAMP EC50 (1.0% HSA) results, for comparison:
Which value of cAMP EC50 (1.0% HSA) has been reported for YXEGTXTSDYXIXLDXKAQXEFIXXLIEGGKSSGAPPPS (Aib2, αMeF(2F)6, Dap11, αMeL13, Orn16, Aib20, D-Glu24, αMeY25; acylated K17, K31 (groups as in name); C-terminal amide) in the records? 2.7 nM

Which value of cAMP EC50 (1.0% HSA) has been reported for YXEGTXTSDXSIXLDXIAQXEFIKXLIEGGPSSGAPPPSK (Aib2, αMeF(2F)6, 4Pal10, αMeL13, Orn16, Aib20, αMeY25; acylated K24, K40 (groups as in name); C-terminal amide) in the records? 1.24 nM

Which value of cAMP EC50 (1.0% HSA) has been reported for YXEGTXTSDXGIXLDXKAQXEFIXXLIEGGKSSGAPPPS (Aib2, αMeF(2F)6, 4Pal10, αMeL13, Orn16, Aib20, D-Glu24, αMeY25; acylated K17, K31 (groups as in name); C-terminal amide) in the records? 2.61 nM

Which value of cAMP EC50 (1.0% HSA) has been reported for YXEGTXTSDXSIXLDXKAQXEFIXXLIEGGKSSGAPPPS (Aib2, αMeF(2F)6, OMeY10, αMeL13, Orn16, Aib20, D-Glu24, αMeY25; acylated K17, K31 (groups as in name); C-terminal amide) in the records? 1.12 nM

Which value of cAMP EC50 (1.0% HSA) has been reported for YXEGTXTSDXSIXLDXKAQXEFIXXLIEGKPSSGAPPPS (Aib2, αMeF(2F)6, 4Pal10, αMeL13, Orn16, Aib20, D-Glu24, αMeY25; acylated K17, K30 (groups as in name); C-terminal amide) in the records? 1.12 nM

Go through the list and state cAMP EC50 (1.0% HSA) for each entry.
1. YXEGTXTSDXSIXLDXIAQXEFIKXLIEGGKSSGAPPPS (Aib2, αMeF(2F)6, 4Pal10, αMeL13, Orn16, Aib20, αMeY25; acylated K24, K31 (groups as in name); C-terminal amide)
2. YXEGTXTSDXXIXLDXIAQXKFIKXLIEGGPSSGAPPPS (Aib2, αMeF(2F)6, 4Pal10, αMeS11, αMeL13, Orn16, Aib20, αMeY25; acylated K21, K24 (groups as in name); C-terminal amide)
3. YXEGTXTSDXSIXLDXKAQXEXIXXLIEGGKSSGAPPPS (Aib2, αMeF(2F)6, 4Pal10, αMeL13, Orn16, Aib20, 2Nal22, D-Glu24, αMeY25; acylated K17, K31 (groups as in name); C-terminal amide)
4. YXEGTXTSDVSIXLDXKAQXEFIXXLIEGGKSSGAPPPS (Aib2, αMeF(2F)6, αMeL13, Orn16, Aib20, D-Glu24, αMeY25; acylated K17, K31 (groups as in name); C-terminal amide)
5. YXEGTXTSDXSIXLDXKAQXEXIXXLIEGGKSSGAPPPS (Aib2, αMeF(2F)6, 4Pal10, αMeL13, Orn16, Aib20, 2ClPhe22, D-Glu24, αMeY25; acylated K17, K31 (groups as in name); C-terminal amide)
6. YXEGTXTSDVSIXLDXKAQXEXIXXLIEGGKSSGAPPPS (Aib2, αMeF(2F)6, αMeL13, Orn16, Aib20, αMeF22, D-Glu24, αMeY25; acylated K17, K31 (groups as in name); C-terminal amide)

1: 1.47 nM; 2: 0.925 nM; 3: 2.49 nM; 4: 3.81 nM; 5: 0.744 nM; 6: 2.64 nM

Go through the list and state cAMP EC50 (1.0% HSA) for each entry.
1. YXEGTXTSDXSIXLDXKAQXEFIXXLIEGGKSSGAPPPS (Aib2, αMeF(2F)6, αMeF(2F)10, αMeL13, Orn16, Aib20, D-Glu24, αMeY25; acylated K17, K31 (groups as in name); C-terminal amide)
2. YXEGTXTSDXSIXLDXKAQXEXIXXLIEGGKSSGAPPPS (Aib2, αMeF(2F)6, 4Pal10, αMeL13, Orn16, Aib20, αMeF(2F)22, D-Glu24, αMeY25; acylated K17, K31 (groups as in name); C-terminal amide)

1. 4.84 nM
2. 0.591 nM

Hey, just so you know, these numbers are from patent US20230265151A1.
